Tested on: THP-1 cells
Assay: TNF-alpha promoter secreted alkaline phosphatase (TNF-PLAP) reporter in THP-1 cells
Format: cell-based, human
Settings: +serum
Protocol: Similar results can be obtained when compounds of the invention are tested in a cell-culture model. […] In this assay, however, the effects of removing serum^1—a condition that may more-likely mimic a subcutaneous environment—can be evaluated. […]
PROPERTY: THP-1 cell Stimulation (% of compound 100 at 10 μM) +serum

- MOLECULE: "CCCCCC/C=C\\CCCC(=O)O[C@H](CCCCCCC)CCOCC(COP(=O)([O-])OCCNC(=O)CCC(=O)NCCOP(=O)([O-])OCC(COCC[C@@H](CCCCCCC)OC(=O)CCC/C=C\\CCCCCC)NC(=O)CC(=O)CCCCCCCCCCC)NC(=O)CC(=O)CCCCCCCCCCC.[Na+].[Na+] (some centres unmarked)"
  VALUE OBSERVED: "141 % of compound 100 at 10 μM"
- MOLECULE: "CCCCCCCCCCCC(=O)CC(=O)NC(COCC[C@@H](CCCCCCC)OC(=O)CCCCCCCCCCC)COP(=O)([O-])OCCNC(=O)NCCOP(=O)([O-])OCC(COCC[C@@H](CCCCCCC)OC(=O)CCCCCCCCCCC)NC(=O)CC(=O)CCCCCCCCCCC.[Na+].[Na+] (some centres unmarked)"
  VALUE OBSERVED: "330 % of compound 100 at 10 μM"
- MOLECULE: "CCCCCC/C=C\\CCCC(=O)O[C@H](CCCCCCC)CCOCC(COP(=O)([O-])OCCNC(=O)CC(=O)NCCOP(=O)([O-])OCC(COCC[C@@H](CCCCCCC)OC(=O)CCC/C=C\\CCCCCC)NC(=O)CC(=O)CCCCCCCCCCC)NC(=O)CC(=O)CCCCCCCCCCC.[Na+].[Na+] (some centres unmarked)"
  VALUE OBSERVED: "215 % of compound 100 at 10 μM"
- MOLECULE: "CCCCCC/C=C\\CCCC(=O)O[C@H](CCCCCCC)CCOCC(COP(=O)([O-])OCCNC(=O)CCCCCCCCC(=O)NCCOP(=O)([O-])OCC(COCC[C@@H](CCCCCCC)OC(=O)CCC/C=C\\CCCCCC)NC(=O)CC(=O)CCCCCCCCCCC)NC(=O)CC(=O)CCCCCCCCCCC.[Na+].[Na+] (some centres unmarked)"
  VALUE OBSERVED: "17 % of compound 100 at 10 μM"
- MOLECULE: "CCCCCC/C=C\\CCCC(=O)O[C@H](CCCCCCC)CCOCC(COP(=O)([O-])OCCNC(=O)NCCOP(=O)([O-])OCC(COCC[C@@H](CCCCCCC)OC(=O)CCC/C=C\\CCCCCC)NC(=O)CC(=O)CCCCCCCCCCC)NC(=O)CC(=O)CCCCCCCCCCC.[Na+].[Na+] (some centres unmarked)"
  VALUE OBSERVED: "155 % of compound 100 at 10 μM"

----------
Test system: normal mouse splenocytes
Test: Cytokine release from murine splenocytes
Assay type: cell-based, C57BL6 mice
Conditions: 24 hours culture with test compound
PROPERTY: interferon-gamma release from splenocytes

- COMPOUND: "CCCCCC/C=C\\CCCC(=O)O[C@H](CCCCCCC)CCOCC(COP(=O)([O-])OCCNC(=O)CCCCCCCCC(=O)NCCOP(=O)([O-])OCC(COCC[C@@H](CCCCCCC)OC(=O)CCC/C=C\\CCCCCC)NC(=O)CC(=O)CCCCCCCCCCC)NC(=O)CC(=O)CCCCCCCCCCC.[Na+].[Na+] (stereo partly shown) [ER 111231]"
  EXPERIMENTAL TARGET: "normal mouse splenocytes"
  VALUE OBSERVED: "stimulated"
- COMPOUND: "CCCCCC/C=C\\CCCC(=O)O[C@H](CCCCCCC)CCOCC(COP(=O)([O-])OCCNC(=O)CC(=O)NCCOP(=O)([O-])OCC(COCC[C@@H](CCCCCCC)OC(=O)CCC/C=C\\CCCCCC)NC(=O)CC(=O)CCCCCCCCCCC)NC(=O)CC(=O)CCCCCCCCCCC.[Na+].[Na+] (stereo partly shown) [ER 113651]"
  EXPERIMENTAL TARGET: "normal mouse splenocytes"
  VALUE OBSERVED: "stimulated"
- COMPOUND: "CCCCCC/C=C\\CCCC(=O)O[C@H](CCCCCCC)CCOCC(COP(=O)([O-])OCCNC(=O)NCCOP(=O)([O-])OCC(COCC[C@@H](CCCCCCC)OC(=O)CCC/C=C\\CCCCCC)NC(=O)CC(=O)CCCCCCCCCCC)NC(=O)CC(=O)CCCCCCCCCCC.[Na+].[Na+] (stereo partly shown) [ER 111232]"
  EXPERIMENTAL TARGET: "normal mouse splenocytes"
  VALUE OBSERVED: "stimulated"

----------
Overview of recorded TNF-alpha release in whole blood at 10 μM compound (% of 10 ng/ml LPS response) for various compounds
System: Human Whole Blood
Assay: Cytokine release in human whole blood (ELISA)
Format: cell-based
Conditions: TNF-alpha release; compounds tested at 10 μM; compared to 10 ng/ml LPS; 3-hour incubation
PROPERTY: TNF-alpha release in whole blood at 10 μM compound (% of 10 ng/ml LPS response)

- COMPOUND: "CCCCCC/C=C\\CCCC(=O)O[C@H](CCCCCCC)CCOCC(COP(=O)([O-])OCCNC(=O)C(Cc1ccc(O)cc1)C(=O)NCCOP(=O)([O-])OCC(COCC[C@@H](CCCCCCC)OC(=O)CCC/C=C\\CCCCCC)NC(=O)CC(=O)CCCCCCCCCCC)NC(=O)CC(=O)CCCCCCCCCCC.[Na+].[Na+] (stereo partly shown) [compound 118023]"
  VALUE OBSERVED: "63 % of LPS"
- COMPOUND: "CCCCCC/C=C\\CCCC(=O)O[C@H](CCCCCCC)CC(=O)NC(COCC[C@H](O)CCCCCCC)COP(=O)([O-])OCCNC(=O)c1ccc(C(=O)NCCOP(=O)([O-])OCC(COCC[C@H](O)CCCCCCC)NC(=O)C[C@@H](CCCCCCC)OC(=O)CCC/C=C\\CCCCCC)cc1.[Na+].[Na+] (stereo partly shown) [compound 112861]"
  VALUE OBSERVED: "0 % of LPS"
- COMPOUND: "CCCCCC/C=C\\CCCC(=O)O[C@H](CCCCCCC)CC(=O)NC(COCC[C@H](O)CCCCCCC)COP(=O)([O-])OCCNC(=O)c1cccc(C(=O)NCCOP(=O)([O-])OCC(COCC[C@H](O)CCCCCCC)NC(=O)C[C@@H](CCCCCCC)OC(=O)CCC/C=C\\CCCCCC)c1.[Na+].[Na+] (stereo partly shown) [compound 112860]"
  VALUE OBSERVED: "0 % of LPS"
- COMPOUND: "CCCCCCCCCCCCCCCC(=O)OCC(COP(=O)(O)OCC(O)COP(=O)(O)OCC(COC(=O)CCCCCCCCCCCCCCC)OC(=O)CCCCCCCCCCCCCCC)OC(=O)CCCCCCCCCCCCCCC (stereo not shown) [compound 112071]"
  VALUE OBSERVED: "0 % of LPS"

----------
System: Human Whole Blood
Test: Cytokine release in human whole blood (ELISA)
Type: cell-based
Settings: TNF-alpha release; compounds tested at 10 μM; compared to 10 ng/ml LPS; 3-hour incubation
PROPERTY: TNF-alpha release in whole blood at 10 μM compound (% of 10 ng/ml LPS response)

- MOLECULE: "CCCCCCCCCCCC(=O)CC(=O)NC(COCC[C@H](O)CCCCCCC)COP(=O)([O-])OCCNC(=O)NCCOP(=O)([O-])OCC(COCC[C@H](O)CCCCCCC)NC(=O)CC(=O)CCCCCCCCCCC.[Na+].[Na+] (some centres unmarked) [compound 112043]"
  VALUE OBSERVED: "0 % of LPS"
- MOLECULE: "CCCCCC/C=C\\CCCC(=O)O[C@H](CCCCCCC)CCOCC(COP(=O)([O-])OCCNC(=O)CC(=O)NCCOP(=O)([O-])OCC(COCC[C@@H](CCCCCCC)OC(=O)CCC/C=C\\CCCCCC)NC(=O)CCCCCCCCCCCCCCC)NC(=O)CCCCCCCCCCCCCCC.[Na+].[Na+] (some centres unmarked) [compound 119000]"
  VALUE OBSERVED: "60 % of LPS"

----------
Test system: Human Whole Blood
Experiment: Cytokine release in human whole blood (ELISA)
Assay type: cell-based
Conditions: TNF-alpha release; compounds tested at 10 μM; compared to 10 ng/ml LPS; 3-hour incubation
PROPERTY: TNF-alpha release in whole blood at 10 μM compound (% of 10 ng/ml LPS response)

- COMPOUND: "CCCCCCCCCCCCCC(=O)NC(COCC[C@@H](CCCCCCC)OC(=O)CCCCCCCCCCC)COP(=O)([O-])OCCNC(=O)NCCOP(=O)([O-])OCC(COCC[C@@H](CCCCCCC)OC(=O)CCCCCCCCCCC)NC(=O)CCCCCCCCCCCCC.[Na+].[Na+] (stereo partly shown)"
  VALUE OBSERVED: "165 ± 33 (n = 3) % of LPS"
- COMPOUND: "CCCCCC/C=C\\CCCC(=O)O[C@H](CCCCCCC)CCOCC(COP(=O)([O-])OCCNC(=O)C(CCCCN)C(=O)NCCOP(=O)([O-])OCC(COCC[C@@H](CCCCCCC)OC(=O)CCC/C=C\\CCCCCC)NC(=O)CCCCCCCCCCCCC)NC(=O)CCCCCCCCCCCCC.[Na+].[Na+] (stereo partly shown)"
  VALUE OBSERVED: "176 % of LPS"
- COMPOUND: "CCCCCC/C=C\\CCCC(=O)O[C@H](CCCCCCC)CCOCC(COP(=O)([O-])OCCNC(=O)CC(=O)NCCOP(=O)([O-])OCC(COCC[C@@H](CCCCCCC)OC(=O)CCC/C=C\\CCCCCC)NC(=O)CC(=O)CCCCCCCCCCC)NC(=O)CC(=O)CCCCCCCCCCC.[Na+].[Na+] (stereo partly shown)"
  VALUE OBSERVED: "133 ± 4.4 (n = 4) % of LPS"
- COMPOUND: "CCCCCCC=CCC=CCCCCCCC(=O)OCC(COP(=O)(O)OCC(O)COP(=O)(O)OCC(COC(=O)CCCCCCC=CCC=CCCCCCC)OC(=O)CCCCCCC=CCC=CCCCCCC)OC(=O)CCCCCCC=CCC=CCCCCCC (stereo not shown)"
  VALUE OBSERVED: "0 % of LPS"
